- TESTED_TARGET: EP2 (Homo sapiens)
- Sequence (P43116 whole entry): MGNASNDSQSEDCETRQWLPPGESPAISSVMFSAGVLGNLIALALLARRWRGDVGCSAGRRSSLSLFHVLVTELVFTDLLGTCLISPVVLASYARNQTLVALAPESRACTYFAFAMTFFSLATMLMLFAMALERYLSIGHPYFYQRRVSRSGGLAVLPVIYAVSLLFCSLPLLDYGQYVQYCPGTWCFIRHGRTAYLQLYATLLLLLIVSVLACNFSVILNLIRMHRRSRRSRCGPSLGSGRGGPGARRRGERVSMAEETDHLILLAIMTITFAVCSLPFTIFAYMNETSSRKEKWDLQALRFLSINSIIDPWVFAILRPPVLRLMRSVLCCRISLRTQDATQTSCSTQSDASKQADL
- PROTOCOL_DESCRIPTION: EP2 cAMP
- Format: cell-based
ENDPOINT_NAME: EC50 (pM)

In the examples that follow, each entry is paired with its recorded EC50.
- O=C(O)c1ccc(CCC[C@@H]2C(=O)C[C@@H](O)[C@@H]2C#Cc2ccccc2)s1 [Example 18]: 600
- O=C(O)c1ccc(CCC[C@H]2C(=O)C[C@@H](O)[C@@H]2C#Cc2ccccc2)s1 [Example 17]: 50

I. O=C(O)c1ccc(CCC[C@@H]2[C@@H](C#Cc3cccs3)[C@H](O)C[C@H]2Cl)s1 [Example 28]
II. O=C(O)c1ccc(CCC[C@@H]2[C@@H](C#Cc3cccnc3)[C@H](O)C[C@H]2Cl)s1 [Example 31]
III. O=C(O)c1csc(SCC[C@@H]2[C@@H](/C=C/c3cc(Cl)cc(Cl)c3)[C@H](O)C[C@H]2Cl)n1 [Example 14]
IV. O=C(O)c1csc(SCC[C@@H]2[C@@H](C#Cc3ccccc3)[C@H](O)C[C@H]2Cl)n1 [Example 35]
Your job: order these 4 records by EC50, ascending. Reply with the labels, ordered as the question asks. III, IV, II, I
